- TARGET OR SYSTEM: T1, P-cadherin-ECD1-3-Fc protein (human P-cadherin-Fc) (human, UniProt P22223 108-440)
- T1 construct: Construct was expressed with signal peptide and pro-peptide (PACE co-transfected to process the propeptide); not shown: hinge and CH2 and CH3 domains of human IgG1
- T1 sequence (P22223 108-440): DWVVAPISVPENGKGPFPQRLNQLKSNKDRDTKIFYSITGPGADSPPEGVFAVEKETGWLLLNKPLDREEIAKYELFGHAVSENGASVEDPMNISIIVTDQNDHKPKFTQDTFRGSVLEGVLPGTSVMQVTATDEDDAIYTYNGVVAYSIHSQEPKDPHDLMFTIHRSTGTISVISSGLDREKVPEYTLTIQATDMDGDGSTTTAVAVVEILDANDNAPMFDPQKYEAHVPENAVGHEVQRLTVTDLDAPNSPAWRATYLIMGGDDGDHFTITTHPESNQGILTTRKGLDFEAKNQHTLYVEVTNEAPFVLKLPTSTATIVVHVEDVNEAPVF
- ASSAY: phage scFv ELISA, coated P-cadherin-ECD1-3-Fc
Recorded % of binding of Clone #153 to human P-cadherin-Fc by entry
READOUT: % of binding of Clone #153 to human P-cadherin-Fc (%)

BINDER	READING
anti-P-cadherin scFv 153 alanine-mutant H2.3-Ala (scFv, V domains shown, scFv on phage) VH: EVQLVQSGAEVKKPGASVKVSCKASGYTFTSYGISWVRQAPGQGLEWMGWIAAYNGNTNYAQKLQGRVTMTTDTSTSTAYMELRSLRSDDTAVYYCATIDTANAFGIWGQGTMVTVSS VL: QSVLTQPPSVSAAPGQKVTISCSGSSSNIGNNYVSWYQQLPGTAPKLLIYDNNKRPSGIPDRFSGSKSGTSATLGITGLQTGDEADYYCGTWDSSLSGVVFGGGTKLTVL	138
anti-P-cadherin scFv 153 alanine-mutant H2.2-Ala (scFv, V domains shown, scFv on phage) VH: EVQLVQSGAEVKKPGASVKVSCKASGYTFTSYGISWVRQAPGQGLEWMGWASAYNGNTNYAQKLQGRVTMTTDTSTSTAYMELRSLRSDDTAVYYCATIDTANAFGIWGQGTMVTVSS VL: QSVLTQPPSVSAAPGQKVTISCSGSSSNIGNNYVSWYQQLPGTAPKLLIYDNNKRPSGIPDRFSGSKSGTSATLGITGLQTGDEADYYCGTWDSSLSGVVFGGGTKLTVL	166
anti-P-cadherin scFv 153 alanine-mutant H3.2-Ala (scFv, V domains shown, scFv on phage) VH: EVQLVQSGAEVKKPGASVKVSCKASGYTFTSYGISWVRQAPGQGLEWMGWISAYNGNTNYAQKLQGRVTMTTDTSTSTAYMELRSLRSDDTAVYYCATIATANAFGIWGQGTMVTVSS VL: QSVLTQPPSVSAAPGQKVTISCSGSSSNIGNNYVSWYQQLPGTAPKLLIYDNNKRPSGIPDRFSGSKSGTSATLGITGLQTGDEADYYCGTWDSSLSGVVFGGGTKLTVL	168
anti-P-cadherin scFv 153 (parental clone 153), displayed on phage (scFv, V domains shown, scFv expressed on the surface of phage) VH: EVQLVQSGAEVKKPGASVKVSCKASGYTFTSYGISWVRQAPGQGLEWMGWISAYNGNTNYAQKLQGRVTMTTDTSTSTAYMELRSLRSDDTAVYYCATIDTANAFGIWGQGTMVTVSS VL: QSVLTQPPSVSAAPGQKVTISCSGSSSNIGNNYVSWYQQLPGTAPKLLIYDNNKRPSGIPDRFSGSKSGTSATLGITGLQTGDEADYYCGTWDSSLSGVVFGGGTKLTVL	100
anti-P-cadherin scFv 153 alanine-mutant H1.5-Ala (scFv, V domains shown, scFv on phage) VH: EVQLVQSGAEVKKPGASVKVSCKASGYTFASYGISWVRQAPGQGLEWMGWISAYNGNTNYAQKLQGRVTMTTDTSTSTAYMELRSLRSDDTAVYYCATIDTANAFGIWGQGTMVTVSS VL: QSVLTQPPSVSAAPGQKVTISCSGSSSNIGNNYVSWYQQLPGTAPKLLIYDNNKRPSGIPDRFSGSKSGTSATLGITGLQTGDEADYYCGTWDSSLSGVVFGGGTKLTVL	155
